- Test system: Fibroblast
- Assay Procedure: Multiplex assay against human fibroblast
- Assay type: toxicity, cell-based
- Measurement Setup: 48 h, 10 µM, compound concentration 10 uM, replicate 2
Quantity Kind: Total Cell Count

// known answers, use as guide
Value of measured Total Cell Count for the entry CC(C)C[C@H](NC(=O)[C@H](Cc1ccccc1)NC(=O)CNC(=O)CNC(=O)[C@@H](N)Cc1ccc(O)cc1)C(=O)O [ENKEPHALIN] : 118

Value of measured Total Cell Count for the entry CCCc1cc(C)[nH]c(=O)c1CNC(=O)c1cc(-c2ccc(N3CCN(C(C)C)CC3)nc2)cc2c1cnn2C(C)C : 202

Value of measured Total Cell Count for the entry C=CC(=O)Nc1cc(-n2c(=O)ccc3cnc4ccc(-c5ccc(NS(C)(=O)=O)cc5)cc4c32)ccc1C : 140

For each entry beneath this line, provide reported Total Cell Count.
1. CC(C)c1cc(Nc2nc(N3CCC[C@H](N)C3)ncc2C(N)=O)cc(C(C)C)n1
2. c1ccc(-c2oc3ncnc(NC[C@@H]4CCCO4)c3c2-c2ccccc2)cc1
3. Cc1c(Nc2ccc(S(=O)(=O)N3CCN(C)CC3)cc2F)nc2ccc(-c3cnn(C4CC4)c3)cn2c1=O
4. CN(c1cc(C(F)(F)F)nc(OCCC(=O)O)n1)c1cccc2c1CCC2

[135, 105, 159, 125]

For each entry beneath this line, provide reported Total Cell Count.
1. CN1CCN(Cc2ccc(-c3cnc4[nH]cc(-c5ccc6[nH]ccc6c5)c4c3)cc2)CC1
2. Oc1cccc(-c2nc(N3CCOCC3)c3oc4ncccc4c3n2)c1 [PI-103]
3. N#Cc1cccc(C(=O)Nc2cc(-c3ccccc3)nn2-c2ccccc2)c1

1: 57; 2: 114; 3: 214

====

Hi there, I'd appreciate the recorded Population Tubulin-Different-Phenotype (%) for every entry that follows.
- Test system: Fibroblast
- Assay Procedure: Multiplex assay against human fibroblast
- Type: toxicity, cell-based
- Measurement Setup: 12 h, 10 µM, compound concentration 10 uM, replicate 2

Value of measured Population Tubulin-Different-Phenotype (%) for the entry CC(C)C[C@H](NC(=O)[C@H](Cc1ccccc1)NC(=O)CNC(=O)CNC(=O)[C@@H](N)Cc1ccc(O)cc1)C(=O)O : 11%

Value of measured Population Tubulin-Different-Phenotype (%) for the entry Cc1ccc(S(=O)(=O)NC2c3ccccc3Oc3ccccc32)cc1 : 50%

Value of measured Population Tubulin-Different-Phenotype (%) for the entry CC(Cc1ccc(O)c(O)c1)C(C)Cc1ccc(O)c(O)c1 (stereo not drawn) [NORDIHYDROGUAIARETIC ACID] : 38%

Value of measured Population Tubulin-Different-Phenotype (%) for the entry CC(C)[C@H](CO)Nc1nc(Nc2cccc(Cl)c2)c2ncn(C(C)C)c2n1 : 98%

Value of measured Population Tubulin-Different-Phenotype (%) for the entry Cc1c(P(=S)(c2ccccc2)c2ccccc2)n2ccccc2[n+]1C/C=C/c1ccccc1.[Br-] : 83%

Value of measured Population Tubulin-Different-Phenotype (%) for the entry NC(=O)c1ccc2nc(-c3ccc(C4(N)CCC4)cc3)c(-c3ccccc3)n2n1 : 5%

Value of measured Population Tubulin-Different-Phenotype (%) for the entry CN(c1cc(C(F)(F)F)nc(OCCC(=O)O)n1)c1cccc2c1CCC2 : 30%

Next molecule, please.
Value of measured Population Tubulin-Different-Phenotype (%) for the entry CC[C@@]1(O)C(=O)OCc2c1cc1n(c2=O)Cc2cc3ccccc3nc2-1 : 7%

Value source: ChEMBL document CHEMBL4689842
